I'd be grateful if you could share measured activity at 10 µM for these entries.
- Tested on: SK-OV-3
- ASSAY COMMENT: NCI60 one-dose screen (10 μM), Ovarian Cancer
- Format: cell-based
- STATED CONDITIONS: Homo sapiens; 10 μM; SK-OV-3, Ovarian Cancer; read-out: Growth percent rate
Give bare numbers, in %.

Use the examples below as a reference point.
1. CC[C@]12C=CCN3CC[C@@]4(c5ccc(OC)cc5N(C)[C@H]4[C@@](O)(C(=O)OC)[C@@H]1OC(=O)CCCN1CCN(Cc4ccc(C(F)(F)F)cc4)CC1)[C@@H]32 [Compound 23]    -44
2. CCC12C=CCN3CCC4(c5ccc(OC)cc5N(C)C4C(O)(C(=O)OC)C1OC(=O)CCC(=O)O)C32 (centres unmarked) [Compound 15, 17-(O-3-carboxypropanoyl)vindoline]    92.3
3. CCC12C=CCN3CCC4(c5cc(NC(=O)CN6CCN(C)CC6)c(OC)cc5N(C)C4C(O)(C(=O)OC)C1OC(C)=O)C32 (centres unmarked) [Compound 16]    113

I have 2 compounds here; please give me activity at 10 µM for each one.
1. CC[C@]12C=CCN3CC[C@@]4(c5ccc(OC)cc5N(C)[C@H]4[C@@](O)(C(=O)OC)[C@@H]1OC(=O)CCC(=O)N1CCN(C(c4ccc(F)cc4)c4ccc(F)cc4)CC1)[C@@H]32 [Compound 31]
2. CCC12C=CCN3CCC4(c5ccc(OC)cc5N(C)C4C(O)(C(=O)OC)C1OC(=O)CCCBr)C32 (centres unmarked) [Compound 14, 17-(O-4-bromobutanoyl)vindoline]

## Result
1. -15.6
2. 101

====

- System: HL-60(TB)
- ASSAY COMMENT: NCI60 one-dose screen (10 μM), Leukemia
- Assay type: cell-based
- STATED CONDITIONS: Homo sapiens; 10 μM; HL-60(TB), Leukemia; read-out: Growth percent rate
REPORTED ENDPOINT: activity at 10 µM (%)
Give bare numbers, in %.

Use the examples below as a reference point.
1. CCC12C=CCN3CCC4(c5ccc(OC)cc5N(C)C4C(O)(C(=O)OC)C1OC(=O)CCCN1CCN(C)CC1)C32 (stereo not drawn)    91
2. CC[C@]12C=CCN3CC[C@@]4(c5ccc(OC)cc5N(C)[C@H]4[C@@](O)(C(=O)OC)[C@@H]1OC(=O)CCC(=O)N1CCN(Cc4ccc(F)cc4)CC1)[C@@H]32    82.2
3. CC[C@]12C=CCN3CC[C@@]4(c5ccc(OC)cc5N(C)[C@H]4[C@@](O)(C(=O)OC)[C@@H]1OC(=O)CCCN1CCN(Cc4ccc(F)cc4)CC1)[C@@H]32    7.68
4. CC[C@]12C=CCN3CC[C@@]4(c5ccc(OC)cc5N(C)[C@H]4[C@@](O)(C(=O)OC)[C@@H]1OC(=O)CCCN1CCN(Cc4ccc(C(F)(F)F)cc4)CC1)[C@@H]32    -65.8
5. CC[C@]12C=CCN3CC[C@@]4(c5ccc(OC)cc5N(C)[C@H]4[C@@](O)(C(=O)OC)[C@@H]1OC(=O)CCCN1CCN(C(=O)c4ccco4)CC1)[C@@H]32    93.8

## Task Given the compound CCC12C=CCN3CCC4(c5ccc(OC)cc5N(C)C4C(O)(C(=O)OC)C1OC(=O)CCC(=O)O)C32 (stereo not drawn) , what is its reported activity at 10 µM?
## Result 114

====

- Tested on: NCI-H522
- ASSAY COMMENT: NCI60 one-dose screen (10 μM), Non-small Cell Lung Cancer
- Type: cell-based
- STATED CONDITIONS: Homo sapiens, NCI-H522, read-out: Growth percent rate
Label scheme for activity at 10 µM: lower than 90% is no, 90% and above is yes.

Check out these entries, answers already filled in.
1) CCC12C=CCN3CCC4(c5cc(NC(=O)CN6CCN(Cc7ccc(C(F)(F)F)cc7)CC6)c(OC)cc5N(C)C4C(O)(C(=O)OC)C1OC(C)=O)C32 (stereo not drawn)    no
2) CCC12C=CCN3CCC4(c5cc(NC(=O)CN6CCN(Cc7ccc(F)cc7)CC6)c(OC)cc5N(C)C4C(O)(C(=O)OC)C1OC(C)=O)C32 (stereo not drawn)    yes
3) CCC12C=CCN3CCC4(c5ccc(OC)cc5N(C)C4C(O)(C(=O)OC)C1O)C32 (stereo not drawn)    yes

## Task Check if activity at 10 µM >= 90% (inclusive). Item: CC[C@]12C=CCN3CC[C@@]4(c5ccc(OC)cc5N(C)[C@H]4[C@@](O)(C(=O)OC)[C@@H]1OC(=O)CCCN1CCN(C(c4ccc(F)cc4)c4ccc(F)cc4)CC1)[C@@H]32
## Result no

## Task Check if activity at 10 µM >= 90% (inclusive). Item: CC[C@]12C=CCN3CC[C@@]4(c5ccc(OC)cc5N(C)[C@H]4[C@@](O)(C(=O)OC)[C@@H]1OC(=O)CCC(=O)N1CCN(C(=O)c4ccco4)CC1)[C@@H]32
## Result no

## Task Check if activity at 10 µM >= 90% (inclusive). Item: CCC12C=CCN3CC[C@@]4(c5ccc(OC)cc5N(C)[C@H]4[C@@](O)(C(=O)OC)[C@@H]1OC(C)=O)[C@@H]32 (stereo partly drawn)
## Result yes

====

- System: CAKI-1
- ASSAY COMMENT: NCI60 five-dose screen, Renal Cancer
- Type: cell-based
- STATED CONDITIONS: Homo sapiens; CAKI-1, Renal Cancer; five-dose screen; read-out: GI50
REPORTED ENDPOINT: GI50 (nM)
Numbers only, in nM.

Use the examples below as a reference point.
1. CC[C@]12C=CCN3CC[C@@]4(c5ccc(OC)cc5N(C)[C@H]4[C@@](O)(C(=O)OC)[C@@H]1OC(=O)CCCN1CCN(Cc4ccc(F)cc4)CC1)[C@@H]32 [Compound 24]    2240
2. CC[C@]12C=CCN3CC[C@@]4(c5ccc(OC)cc5N(C)[C@H]4[C@@](O)(C(=O)OC)[C@@H]1OC(=O)CCC(=O)N1CCN(c4ccc(C(F)(F)F)cc4)CC1)[C@@H]32 [Compound 28]    2000

Consider now this further compound.
## Task Given the compound CC[C@]12C=CCN3CC[C@@]4(c5ccc(OC)cc5N(C)[C@H]4[C@@](O)(C(=O)OC)[C@@H]1OC(=O)CCC(=O)N1CCN(C(c4ccc(F)cc4)c4ccc(F)cc4)CC1)[C@@H]32 [Compound 31] , what is its reported GI50?
## Result 3070

====

- System: TK-10
- ASSAY COMMENT: NCI60 five-dose screen, Renal Cancer
- Type: cell-based
- STATED CONDITIONS: Homo sapiens; TK-10, Renal Cancer; five-dose screen; read-out: GI50
I'd be grateful if you could share measured GI50 for these entries.
Answers are plain numbers, in nM.

1. CC[C@]12C=CCN3CC[C@@]4(c5ccc(OC)cc5N(C)[C@H]4[C@@](O)(C(=O)OC)[C@@H]1OC(=O)CCC(=O)N1CCN(C(c4ccc(F)cc4)c4ccc(F)cc4)CC1)[C@@H]32    2570
2. CCC12C=CCN3CCC4(c5cc(NC(=O)CN6CCN(c7ccc(C(F)(F)F)cc7)CC6)c(OC)cc5N(C)C4C(O)(C(=O)OC)C1OC(C)=O)C32 (stereo not drawn)    4570

Consider now this further compound.
## Task Given the compound CC[C@]12C=CCN3CC[C@@]4(c5ccc(OC)cc5N(C)[C@H]4[C@@](O)(C(=O)OC)[C@@H]1OC(=O)CCCN1CCN(c4ccc(C(F)(F)F)cc4)CC1)[C@@H]32 , what is its reported GI50?
## Result 2880

====

I'd be grateful if you could share measured activity at 10 µM for these entries.
- Test system: HCT-116
- ASSAY COMMENT: NCI60 one-dose screen (10 μM), Colon Cancer
- Type: cell-based
- STATED CONDITIONS: Homo sapiens; 10 μM; HCT-116, Colon Cancer; read-out: Growth percent rate
Numbers only, in %.

Use the examples below as a reference point.
1. CCC12C=CCN3CCC4(c5cc(NC(=O)CN6CCN(c7ccc(C(F)(F)F)cc7)CC6)c(OC)cc5N(C)C4C(O)(C(=O)OC)C1OC(C)=O)C32 (stereo not drawn) [Compound 17]    0.31
2. CCC12C=CCN3CCC4(c5cc(NC(=O)CCl)c(OC)cc5N(C)C4C(O)(C(=O)OC)C1OC(C)=O)C32 (stereo not drawn) [Compound 12, 10-chloroacetamidovindoline]    41.2

## Task Given the molecule CCC12C=CCN3CCC4(c5cc(NC(=O)CN6CCN(C(c7ccc(F)cc7)c7ccc(F)cc7)CC6)c(OC)cc5N(C)C4C(O)(C(=O)OC)C1OC(C)=O)C32 (stereo not drawn) [Compound 20] , what is its reported activity at 10 µM?
## Result 27.9
